TEST TARGET: T1, human Sdc2 (human, UniProt P34741 19-144, limits assumed)
T1 construct: Antigen of the Octet tandem binning, loaded on biosensors at 100 nM; also called huSdc2; hSdc2
T1 sequence (P34741 19-144 limits assumed): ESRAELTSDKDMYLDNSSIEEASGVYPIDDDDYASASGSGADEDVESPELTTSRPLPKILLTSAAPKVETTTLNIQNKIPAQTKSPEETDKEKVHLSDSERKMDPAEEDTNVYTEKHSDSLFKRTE
EXPERIMENT NOTES: Octet tandem binning; saturating Ab m5 19844-R4M-P3-A12 (row boxed, self-self >0.09)
ENDPOINT NAME: raw competing-Ab binding signal
Enter a number only.

Memo: 6-N03-A (antibody, mouse IgG1, kappa, V domains shown) VH: EVQLVESGGGLVKPGGSLKLSCEASGITFSNYVMSWVRQTPEKRLEWVATISDGGSYTYYPDNVKGRFTISRDNAKNNLYLQMSHLKSEDTAMYYCVRDRYDYDGRVYAMDYWGQGTSVTVSS VL: DVVMTQTPLSLPVSLGDQASISCRSSQSLVHSNGDTYLHWYLQKPGQSPKLLIYKVSNRFSGVPDRFSGSGSGTDFTLKITRVEAEDLGVYFCSQSTHVPWTFGGGTKLEIKR , reported raw competing-Ab binding signal: 0.472

Where do the numbers come from? From patent US20250282885A1.
